System: brain levels of L-5-hydroxytryptophan (L-5-HTP), serotonin (5-HT) and 5-hydroxyindoleacetic acid (5-HIAA)
TEST_METHOD_NOTES: Biochemical analysis of brain levels of L-5-HTP, 5-HT and 5-HIAA one hour after a single dose (technique of CURZON and GREEN)
Type: in vivo, rats
CONDITIONS: brain level, adult rats, single dose 10 mg/kg, one hour after administration, percentage increase relative to control animals
Square brackets hold non-standard residues; d marks the D form. Peptide text beside a SMILES is read from it. Trp(5-OH) = N[C@@H](Cc1c[nH]c2ccc(O)cc12)C(=O)O
PROPERTY_LABEL: %, relative to the controls, of 5-HIAA at dose of 10 mg/kg
Number first, unit second.

Prompt line: Using the record for CCOC(=O)CC[C@H](NC(=O)[C@@H](N)Cc1c[nH]c2ccc(O)cc12)C(=O)OCC.Cl [Example 3] (H-[Trp(5-OH)]-Glu(OEt)-OEt) , report its %, relative to the controls, of 5-HIAA at dose of 10 mg/kg.
Response line: 50%

Prompt line: Using the record for N[C@@H](Cc1c[nH]c2ccc(O)cc12)C(=O)N[C@@H](CO)C(=O)O [Example 16, L-5-HYDROXYTRYPTOPHYL-L-SERINE] (H-[Trp(5-OH)]-Ser-OH) , report its %, relative to the controls, of 5-HIAA at dose of 10 mg/kg.
Response line: 10%

Prompt line: Using the record for N[C@@H](Cc1c[nH]c2ccc(O)cc12)C(=O)NCC(=O)O [Example 19, 5-HYDROXY-L-TRYPTOPHYLGLYCINE] (H-[Trp(5-OH)]-Gly-OH) , report its %, relative to the controls, of 5-HIAA at dose of 10 mg/kg.
Response line: 75%
